experimentDescription: Caco-2 membrane permeability and efflux test
Type: in vitro ADME
studyConditions: human, Caco-2, B-A, Caco-2 monolayer, 37° C., 90 minutes, mean of two samples; read-out: Papp Mean
Parameter threshold = 30 ×10⁻⁶ cm/s. Response is t when Papp B→A at 90 min meets or exceeds it, else f.

compound="Nc1ncnc2c1c(-c1ccc(Oc3ccccc3)cc1)nn2C1CCN(CCOCCOCCNc2ccc3c(c2)C(=O)N(C2CCC(=O)NC2=O)C3=O)CC1 (centres unmarked) [Control compound 3]" classification=t
compound="Nc1ncnc2c1c(-c1ccc(Oc3ccccc3)cc1)nn2C1CCN(CCCCCOCCOc2ccc3c(c2)CN(C2CCC(=O)NC2=O)C3=O)CC1 (centres unmarked) [Compound 1]" classification=f
compound="Nc1ncnc2c1c(-c1ccc(Oc3ccccc3)cc1)nn2C1CCCN(CCOCCOCCOCCOCCNc2cccc3c2C(=O)N(C2CCC(=O)NC2=O)C3=O)C1 (centres unmarked) [Control compound 2]" classification=f
compound="Nc1ncnc2c1c(-c1ccc(Oc3ccccc3)cc1)nn2C1CCN(CCOCCOCCNc2ccc3c(c2)CN(C2CCC(=O)NC2=O)C3=O)CC1 (centres unmarked) [Control compound 1]" classification=t
compound="Nc1ncnc2c1c(-c1ccc(Oc3ccccc3)cc1)nn2C1CCN(CCOCCCCCOc2ccc3c(c2)CN(C2CCC(=O)NC2=O)C3=O)CC1 (centres unmarked) [Compound 2]" classification=f
